Reported IC50 is given for each of the following molecules.
Biological target: rat FAAH (Rattus norvegicus, UniProt P97612)
Sequence (P97612 1-579): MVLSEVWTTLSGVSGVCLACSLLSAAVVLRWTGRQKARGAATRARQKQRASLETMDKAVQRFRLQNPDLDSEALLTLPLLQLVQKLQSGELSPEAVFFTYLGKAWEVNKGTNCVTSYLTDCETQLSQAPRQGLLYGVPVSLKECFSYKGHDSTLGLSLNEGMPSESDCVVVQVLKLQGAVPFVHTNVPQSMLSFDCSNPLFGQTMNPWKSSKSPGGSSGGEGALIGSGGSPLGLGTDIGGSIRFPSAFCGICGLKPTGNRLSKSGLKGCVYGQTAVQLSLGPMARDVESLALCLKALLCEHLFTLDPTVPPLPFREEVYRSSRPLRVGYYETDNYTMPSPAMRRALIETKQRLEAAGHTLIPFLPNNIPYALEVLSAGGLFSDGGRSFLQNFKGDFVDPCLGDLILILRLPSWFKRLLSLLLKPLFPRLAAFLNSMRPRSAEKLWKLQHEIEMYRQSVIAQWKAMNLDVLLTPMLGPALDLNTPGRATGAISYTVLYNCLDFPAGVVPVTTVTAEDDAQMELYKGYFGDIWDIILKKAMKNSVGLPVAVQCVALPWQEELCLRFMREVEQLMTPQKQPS
observed.property: IC50 (µM)

[[record]]
molecule = "O=C(CCCC1CCN(C(=O)COCc2ccccc2)CC1)c1ncco1"
test_target = "rat FAAH (Rattus norvegicus, UniProt P97612)"
observed_property = "IC50"
unit_abbrev = "µM"
measurement = 0.25

[[record]]
molecule = "COCCOC(=O)N1CCC(CCCC(=O)c2ncco2)CC1"
test_target = "rat FAAH (Rattus norvegicus, UniProt P97612)"
observed_property = "IC50"
unit_abbrev = "µM"
measurement = 0.24

[[record]]
molecule = "O=C(CCCC1CCN(Cc2cccc(-c3ccccc3)c2)CC1)c1ncco1"
test_target = "rat FAAH (Rattus norvegicus, UniProt P97612)"
observed_property = "IC50"
unit_abbrev = "µM"
measurement = 0.002

[[record]]
molecule = "O=C(CCCC1CCN(S(=O)(=O)c2ccc(Cl)c(Cl)c2)CC1)c1ncco1"
test_target = "rat FAAH (Rattus norvegicus, UniProt P97612)"
observed_property = "IC50"
unit_abbrev = "µM"
measurement = 0.11

[[record]]
molecule = "O=C(CCCC1CCN(Cc2cnc3ccccc3n2)CC1)c1ncco1"
test_target = "rat FAAH (Rattus norvegicus, UniProt P97612)"
observed_property = "IC50"
unit_abbrev = "µM"
measurement = 0.277

[[record]]
molecule = "O=C(CCCC1CCN(C(=O)Cc2cccc(Cl)c2)CC1)c1ncco1"
test_target = "rat FAAH (Rattus norvegicus, UniProt P97612)"
observed_property = "IC50"
unit_abbrev = "µM"
measurement = 0.712

[[record]]
molecule = "O=C(CCCC1CCN(C(=O)C2CCCCC2)CC1)c1ncco1"
test_target = "rat FAAH (Rattus norvegicus, UniProt P97612)"
observed_property = "IC50"
unit_abbrev = "µM"
measurement = 0.18

[[record]]
molecule = "CC(C)C(=O)N1CCC(CCCC(=O)c2ncco2)CC1"
test_target = "rat FAAH (Rattus norvegicus, UniProt P97612)"
observed_property = "IC50"
unit_abbrev = "µM"
measurement = 2.25

[[record]]
molecule = "CC(C)c1cccc(CN2CCC(CCCC(=O)c3ncco3)CC2)c1"
test_target = "rat FAAH (Rattus norvegicus, UniProt P97612)"
observed_property = "IC50"
unit_abbrev = "µM"
measurement = 0.003

[[record]]
molecule = "O=C(CCCC1CCN(C(=O)Cc2ccccc2)CC1)c1ncco1"
test_target = "rat FAAH (Rattus norvegicus, UniProt P97612)"
observed_property = "IC50"
unit_abbrev = "µM"
measurement = 1.3

